// reported inhibition for each item listed
- measurement notes: ASC/caspase-1 reporter retest in S. cerevisiae at one dose, specificity check for NALP1 project (AID 488857)
- experimental conditions: S. cerevisiae ASC/Caspase-1, beta-galactosidase luminescence, 24 h; at 10 µM; stronger effect = higher value
Screen size: about 1,400 compounds; about 560 (40%) were called active. So high a share suggests a set chosen from earlier hits. The list shows a part of the results.

| structure as smiles | inhibition |
| --- | --- |
| O=C(CN1CCc2ccccc2C1)NCc1ccco1 | 36.3% (inactive) |

(Q) Name the recorded inhibition for Oc1c(CN2CCCCC2)cc(Br)c2cccnc12 .
(A) 49% (inactive)

(Q) Query: inhibition; subject: CCOC(=O)/C=C/C(=O)Nc1nccs1
(A) 47.1% (inactive)

* * *

Known inhibition of a selection of compounds
- measurement notes: ASC/caspase-1 reporter retest in S. cerevisiae at one dose, specificity check for NALP1 project (AID 488857)
- experimental conditions: S. cerevisiae ASC/Caspase-1, beta-galactosidase luminescence, 24 h; at 10 µM; stronger effect = higher value
About 560 (40%) of roughly 1,400 compounds were called active. So high a share suggests a set chosen from earlier hits. The list shows a part of the results.
Field format: number, assumed %, no unit text.

| compound | unit of measure | obs value |
| --- | --- | --- |
| COc1ccc(C2NCCc3c2[nH]c2ccccc32)cc1CSc1nc2ccccc2s1 (centres undefined) | % | 50 |
| CC(C)N1CCC2(CC1)N=C(c1ccc3c(c1)OCO3)CC(c1cc(Cl)ccc1O)N2 (centres undefined) | % | 74.5 |
| c1ccc2sc(Sc3ncnc4sccc34)nc2c1 | % | 44.6 |
| O=C(Cc1ccc(-n2c(=O)[nH]c3ccccc3c2=O)cc1)N1CCN(c2ccccc2)CC1 | % | 17.4 |
| CCOC(=O)C(=CNNc1ccsc1C(=O)OC)C(=O)OCC | % | 41 |
| NC(C(=O)O)C1CC(Cl)=NO1 (centres undefined) | % | 59.1 |

(Q) Dear colleague, I am looking for the recorded inhibition of the following compound: CCOC(=O)C(=Cc1cc(=O)c(OC)co1)C(=O)OCC
(A) 85.2

(Q) Suppose we examine the compound CCOc1ccc(/C=C/C(=O)c2ccccc2)cc1OC ; what inhibition value has been reported?
(A) 55.5

(Q) Record request: inhibition value, item CN(C)CCCN(C(=O)c1ccc2c(c1)CCCC2)c1nc2ccc(F)cc2s1
(A) 61.3

(Q) Dear colleague, I am looking for the recorded inhibition of the following compound: COc1ccc2c(c1)C1=NN(/C(C)=C/C(C)=O)C(c3ccc(F)cc3)C1CC2 (centres undefined)
(A) 45.9

(Q) I would be grateful if you could share the reported inhibition for CNC(=O)c1ccsc1NC(=O)c1sc2ccccc2c1Cl .
(A) 58.8

(Q) Can you share its inhibition? I mean this compound: Cc1ccc(C(C)C)cc1OCCN1CCCC1
(A) 54.6

(Q) Any idea what its inhibition is? The compound is Cc1ccc(-c2csc(NC(=O)c3ccc(F)cc3)c2C(=O)O)cc1
(A) 93.8

(Q) // inhibition lookup, key: O=C(CCNc1n[nH]c(=O)[nH]c1=O)N/N=C/c1ccc(C(F)(F)F)cc1
(A) 23.2

(Q) Give its inhibition value. Item: O=C1CC(c2cccc(Cl)c2)CC(O)=C1C=Nc1cccc(Cl)c1 (centres undefined)
(A) 53.5
